experiment.summary: Plasma and urine pharmacokinetics
Assay type: in vivo, human
condition.label: human, plasma, intravenous, 90 mg/m2, Cmax, weekly trial, W2, 90 mg/m^2 over 3 h, N=8; SD of geometric mean in parenthesis
property: Cmax (ng/mL)
Provide only the numeric value, understood in ng/mL.

input: Would you mind telling me what Cmax value was observed for "COc1cc2c3c(n(CCCN4CCOCC4)c(=O)c2cc1OC)-c1cc2c(cc1C3=O)OCO2" ?
output: 1690

* * *

experiment.summary: Plasma and urine pharmacokinetics
Type: in vivo, human
condition.label: human, plasma, intravenous, 2.5 mg/m2, Cmax, daily trial, D1, 2.5 mg/m^2 over 1 h, N=1
property: Cmax
Returns: string containing the numeric result and its unit.

input: Would you mind telling me what Cmax value was observed for "COc1cc2c3c(n(CCCN4CCOCC4)c(=O)c2cc1OC)-c1cc2c(cc1C3=O)OCO2" ?
output: 0.0943 µg/mL
